- Test system: Enterococcus faecalis
- Method description: Effective dose of compound against Enterococcus faecalis (GC 6189) in mice
- Assay type: functional
I'd be grateful if you could share measured ED50 for these entries.
Give just the numeric value; mg/kg need not be written.

Item under review: C[C@@H](c1ccccc1)C1NC(=O)CNC(=O)[C@H](CO)NC(=O)[C@@H]([C@@H](O)[C@@H]2CN=C(N)N2[C@H]2O[C@H](CO)[C@@H](O)[C@H](O)[C@@H]2O)NC(=O)[C@H]([C@@H](O)[C@@H]2CN=C(N)N2)NC(=O)[C@@H](Cc2ccc(O[C@H]3O[C@H](CO)[C@@H](O[C@H]4O[C@@H]5COC(Cc6ccccc6)O[C@H]5[C@H](O)[C@@H]4O)[C@H](O)[C@@H]3O)cc2)NC1=O (some centres undefined) . Reported ED50? 1.04

Then what about the molecule NC1=NC[C@@H]([C@H](O)[C@@H]2NC(=O)[C@@H](Cc3ccc(O[C@H]4O[C@H](CO)[C@@H](O[C@H]5O[C@@H]6COC7(O[C@H]6[C@H](O)[C@@H]5O)C5CC6CC(C5)CC7C6)[C@H](O)[C@@H]4O)cc3)NC(=O)C(CC3CCCCC3)NC(=O)CNC(=O)[C@H](CO)NC(=O)[C@@H]([C@@H](O)[C@@H]3CN=C(N)N3[C@H]3O[C@H](CO)[C@@H](O)[C@H](O)[C@@H]3O)NC2=O)N1 (some centres undefined) ? 0.39

Then what about the molecule C[C@@H](c1ccccc1)C1NC(=O)CNC(=O)[C@H](CO)NC(=O)[C@@H]([C@@H](O)[C@@H]2CN=C(N)N2[C@H]2O[C@H](CO)[C@@H](O)[C@H](O)[C@@H]2O)NC(=O)[C@H]([C@@H](O)[C@@H]2CN=C(N)N2)NC(=O)[C@@H](Cc2ccc(O[C@H]3O[C@H](CO)[C@@H](O[C@H]4O[C@@H]5COC6(O[C@H]5[C@H](O)[C@@H]4O)C4CC5CC(C4)CC6C5)[C@H](O)[C@@H]3O)cc2)NC1=O (some centres undefined) ? 1.8
